Test system: intracellular S. flexneri 5a M90T in TC7 cells
testSummary: microbe, parasite or virus in culture
Format: cell-based, Shigella flexneri
experimentalSetup: Shigella flexneri, TC7, 14 h
Below, each entry is listed alongside its reported IC50.

# compound, IC50 (nM)
data = [
    ("COc1c(N2CCNC(C)C2)c(F)cc2c(=O)c(C(=O)O)cn(C3CC3)c12 (centres unmarked)", 34),
    ("C[C@@H]1CN(c2c(F)c(N)c3c(=O)c(C(=O)O)cn(C4CC4)c3c2F)C[C@H](C)N1", 12),
    ("C[C@H]1NCc2cc(-c3ccc4c(=O)c(C(=O)O)cn(C5CC5)c4c3OC(F)F)ccc21", 31),
    ("CC[C@H]1OC(=O)[C@@](C)(F)C(=O)[C@H](C)[C@@H](O[C@@H]2O[C@H](C)C[C@H](N(C)C)[C@H]2O)[C@](C)(OC)C[C@@H](C)C(=O)[C@H](C)[C@H]2N(CCCCn3cc(-c4cccc(N)c4)nn3)C(=O)O[C@]12C", 1680),
    ("Cn1c(COP(=O)(NCCBr)NCCBr)cnc1[N+](=O)[O-] [Evofosfamide]", 102000),
    ("COc1c(N2C[C@@H]3CCCN[C@@H]3C2)c(F)cc2c(=O)c(C(=O)O)cn(C3CC3)c12", 35),
    ("CO[C@@H]1[C@@H](O[C@@H]2O[C@H](C)[C@@H](O[C@H]3C[C@@](C)(O)[C@@H](OC(=O)CC(C)C)[C@H](C)O3)[C@H](N(C)C)[C@H]2O)[C@@H](CC=O)C[C@@H](C)[C@@H](O)/C=C/C=C/C[C@@H](C)OC(=O)C[C@H]1OC(C)=O", 34300),
    ("CC[C@H]1OC(=O)C[C@@H](O)[C@H](C)[C@@H](O[C@@H]2O[C@H](C)C[C@H](N(C)C)[C@H]2O)[C@@H](CC=O)C[C@@H](C)C(=O)/C=C/[C@]2(C)O[C@H]2[C@@H]1C", 23600),
    ("CC1Sc2c(C(=O)O)c(=O)c3cc(F)c(N4CCNCC4)cc3n21 (centres unmarked)", 101),
    ("CCC(=O)O[C@@H]1CC(=O)O[C@H](C)C/C=C/C=C/[C@H](O)[C@H](C)C[C@H](CC=O)[C@H](O[C@@H]2O[C@H](C)[C@@H](O[C@H]3C[C@@](C)(O)[C@@H](OC(=O)CC)[C@H](C)O3)[C@H](N(C)C)[C@H]2O)[C@H]1OC", 91000),
    ("CN1CCN(c2cc3c(cc2F)c(=O)c(C(=O)O)cn3-c2ccc(F)cc2)CC1", 183),
    ("O=C(O)c1cn(-c2ccc(F)cc2)c2cc(N3CCNCC3)c(F)cc2c1=O", 114),
    ("CO[C@H]1/C=C/O[C@@]2(C)Oc3c(C)c(O)c4c(O)c(c(/C=N/N5CCN(C)CC5)c(O)c4c3C2=O)NC(=O)/C(C)=C\\C=C\\[C@H](C)[C@H](O)[C@@H](C)[C@@H](O)[C@@H](C)[C@H](OC(C)=O)[C@@H]1C", 3230),
    ("NC1CCN(c2c(F)cc3c(=O)c(C(=O)O)cn(C4CC4)c3c2Cl)C1 (centres unmarked)", 10),
]

====

System: E. coli CFT073 (UPEC)
testSummary: MIC, standard microdilution assay, growing UPEC
Type: cell-based, Escherichia coli
experimentalSetup: E. coli, LPM pH 5.5; read-out: MIC
Procedure: Minimal inhibitory concentrations (MICs) were determined using a standard microdilution assay protocol. CA-MHB medium buffered with 40 mM HEPES (pH 7.4) was used to determine the MICs for UPEC, P. aeruginosa, and S. aureus. […] MICs for UPEC were also determined in LPM buffered with 30 mM MES (pH 5.5). For S. flexneri, MICs were determined in tryptic soy broth (TSB). The assay was performed in triplicates.
Below, each entry is listed alongside its reported MIC.

# compound, MIC, µM
data = [
    ("CO[C@H]1/C=C/O[C@@]2(C)Oc3c(C)c(O)c4c(O)c(c(/C=N/N=C/N5CCCCC5)c(O)c4c3C2=O)NC(=O)/C(C)=C\\C=C\\[C@H](C)[C@H](O)[C@@H](C)[C@@H](O)[C@@H](C)[C@H](OC(C)=O)[C@@H]1C [FCE-22250]", 2),
    ("N#Cc1c(N2C[C@@H]3NCCO[C@H]3C2)c(F)cc2c(=O)c(C(=O)O)cn(C3CC3)c12 [Finafloxacin]", 0.007812),
    ("N[C@@H]1CN(c2c(F)cc3c(=O)c(C(=O)O)cn([C@@H]4C[C@@H]4F)c3c2Cl)CC12CC2 [Sitafloxacin]", 0.5),
    ("CC(=O)[O][Pt]([NH2])([Cl])([Cl])([NH]C1CCCCC1)[O]C(C)=O [Satraplatin]", 32),
]

====

System: E. coli CFT073 (UPEC)
testSummary: MIC, standard microdilution assay, growing UPEC
Type: cell-based, Escherichia coli
experimentalSetup: Escherichia coli; E. coli, pH 7.4; 1:4 diluted CA-MHB; read-out: MIC (μM) 1:4 CA-MHB
Protocol: Minimal inhibitory concentrations (MICs) were determined using a standard microdilution assay protocol. CA-MHB medium buffered with 40 mM HEPES (pH 7.4) was used to determine the MICs for UPEC, P. aeruginosa, and S. aureus. […] MICs for UPEC were also determined in LPM buffered with 30 mM MES (pH 5.5). For S. flexneri, MICs were determined in tryptic soy broth (TSB). The assay was performed in triplicates.
Below, each entry is listed alongside its reported MIC.
outcomeMeasure: MIC

# molecule, endpointResult
data = [
    ("CC[C@H]1OC(=O)C[C@@H](O)[C@H](C)[C@@H](O[C@@H]2O[C@H](C)C[C@H](N(C)C)[C@H]2O)[C@@H](CC=O)C[C@@H](C)C(=O)/C=C/[C@]2(C)O[C@H]2[C@@H]1C [Rosamicin]", "6.25 µM"),
    ("CO[C@H]1/C=C/O[C@@]2(C)Oc3c(C)c(O)c4c(c3C2=O)C2=NC3(CCN(CC(C)C)CC3)NC2=C(NC(=O)/C(C)=C\\C=C\\[C@H](C)[C@H](O)[C@@H](C)[C@@H](O)[C@@H](C)[C@H](OC(C)=O)[C@@H]1C)C4=O [Rifabutin]", "0.625 µM"),
    ("CCC(=O)O[C@@H]1CC(=O)O[C@H](C)C/C=C/C=C/[C@H](O)[C@H](C)C[C@H](CC=O)[C@H](O[C@@H]2O[C@H](C)[C@@H](O[C@H]3C[C@@](C)(O)[C@@H](OC(=O)CC)[C@H](C)O3)[C@H](N(C)C)[C@H]2O)[C@H]1OC [Midecamycin]", "160 µM"),
    ("CO[C@H]1/C=C/O[C@@]2(C)Oc3c(C)c(O)c4c(O)c(c(/C=N/N5CCN(C6CCCC6)CC5)c(O)c4c3C2=O)NC(=O)/C(C)=C\\C=C\\[C@H](C)[C@H](O)[C@@H](C)[C@@H](O)[C@@H](C)[C@H](OC(C)=O)[C@@H]1C [Rifapentine]", "5 µM"),
]

====

Test system: non-growing P. aeruginosa DSM1117
testSummary: Dose-dependent killing analysis (CFU spot-plating) of stationary-phase P. aeruginosa
Format: cell-based, Pseudomonas aeruginosa
experimentalSetup: P. aeruginosa; concentration 0.1; vs CFU before treatment

# compound, killing, average Δlog10(CFU/ml)
records = [
    ("CCCCCCCCN=c1ccn(CCCCCCCCCCn2ccc(=NCCCCCCCC)cc2)cc1", "-0.305 log10(CFU/ml)"),
    ("N[C@@H]1CCCCN(c2c(F)cc3c(=O)c(C(=O)O)cn(C4CC4)c3c2Cl)C1", "0.619 log10(CFU/ml)"),
    ("CO/N=C1\\CN(c2nc3c(cc2F)c(=O)c(C(=O)O)cn3C2CC2)CC1CN (stereo not shown)", "0.431 log10(CFU/ml)"),
    ("COc1c(N2C[C@@H]3CCCN[C@@H]3C2)c(F)cc2c(=O)c(C(=O)O)cn(C3CC3)c12", "0.236 log10(CFU/ml)"),
]

====

Below, each entry is listed alongside its reported EC50.
Tested on: non-growing UPEC CFT073
testSummary: Dilution-regrowth assay (screen, hit validation, dose-response) on stationary-phase UPEC
Type: cell-based, Escherichia coli
experimentalSetup: Escherichia coli; E. coli, LPM pH 5.5; regrowth delay of non-growing bacteria, 24 h treatment, OD600 6 h after 2500-fold dilution; read-out: EC50
Experimental: The cultures were incubated for 24 h in non-baffled Erlenmeyer flasks at 37 °C with shaking at 200 rpm. The high-throughput screening (HTS) procedure was based on the protocol by Hazan and colleagues[15] and conducted at the Chemical Biology Consortium Sweden (CBCS) screening facility. […] The plates were incubated at 37 °C for 6 h in humidified boxes, then OD600 was measured using a microplate reader. […]

# compound, EC50
measured = [
    ("CCN1CCN(c2cc3c(cc2F)c(=O)c(C(=O)O)cn3C2CC2)CC1 [Enrofloxacin]", "21.5 µM"),
    ("NC1CCN(c2nc3c(cc2F)c(=O)c(C(=O)O)cn3-c2ccc(F)cc2F)C1 (stereo not shown) [Tosufloxacin]", "10.3 µM"),
    ("CN1CCN(c2cc3c(cc2F)c(=O)c(C(=O)O)cn3-c2ccc(F)cc2)CC1 [Difloxacin]", "9.95 µM"),
    ("CO[C@H]1/C=C/O[C@@]2(C)Oc3c(C)c(O)c4c(O)c(c(/C=N/N5CCN(C6CCCC6)CC5)c(O)c4c3C2=O)NC(=O)/C(C)=C\\C=C\\[C@H](C)[C@H](O)[C@@H](C)[C@@H](O)[C@@H](C)[C@H](OC(C)=O)[C@@H]1C [Rifapentine]", "1.16 µM"),
]
